- test system: T1, Human TROP2 ECD (31-274 AA), biotinylated (human, UniProt P09758 31-274, biotinylated (site not stated))
- T1 construct: also called tumor-associated calcium signal transducer 2; Human TROP2-biotin
- T1 sequence: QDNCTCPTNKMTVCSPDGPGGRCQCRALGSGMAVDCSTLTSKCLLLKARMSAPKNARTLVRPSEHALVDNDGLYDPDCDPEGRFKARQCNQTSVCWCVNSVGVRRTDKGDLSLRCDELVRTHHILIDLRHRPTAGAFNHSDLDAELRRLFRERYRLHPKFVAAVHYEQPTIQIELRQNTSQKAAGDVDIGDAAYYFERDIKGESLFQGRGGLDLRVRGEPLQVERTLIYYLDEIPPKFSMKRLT
- assay name: ELISA, ratio of EC50 to that of TBD-1 wt
attribute measured: Fold shift in EC50 relative to wt (fold)
Please respond with the number in fold and leave the unit unwritten.

| binder | unit of measure | Fold shift in EC50 relative to wt |
| --- | --- | --- |
| TBD-15 (anti-TROP2 Fab, HC G102A) (Fab, V domains shown) VH: QVQLQQSGSELKKPGASVKVSCKASGYTFTNYGMNWVKQAPGQGLKWMGWINTYTGEPTYTDDFKGRFAFSLDTSVSTAYLQISSLKADDTAVYFCARGGFASSYWYFDVWGQGSLVTVSS VL: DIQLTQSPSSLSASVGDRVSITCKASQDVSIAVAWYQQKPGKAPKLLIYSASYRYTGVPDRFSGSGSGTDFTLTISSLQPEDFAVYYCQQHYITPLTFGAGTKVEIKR | fold | 361 |
| TBD-12 (anti-TROP2 Fab, HC G99A) (Fab, V domains shown) VH: QVQLQQSGSELKKPGASVKVSCKASGYTFTNYGMNWVKQAPGQGLKWMGWINTYTGEPTYTDDFKGRFAFSLDTSVSTAYLQISSLKADDTAVYFCARAGFGSSYWYFDVWGQGSLVTVSS VL: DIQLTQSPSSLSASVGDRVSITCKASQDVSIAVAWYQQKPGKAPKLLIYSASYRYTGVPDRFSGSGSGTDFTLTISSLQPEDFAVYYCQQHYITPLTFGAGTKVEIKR | fold | 1 |

Task: Fill in the blank: the reported Fold shift in EC50 relative to wt of TBD-16 (anti-TROP2 Fab, HC S103A) (Fab, V domains shown) VH: QVQLQQSGSELKKPGASVKVSCKASGYTFTNYGMNWVKQAPGQGLKWMGWINTYTGEPTYTDDFKGRFAFSLDTSVSTAYLQISSLKADDTAVYFCARGGFGASYWYFDVWGQGSLVTVSS VL: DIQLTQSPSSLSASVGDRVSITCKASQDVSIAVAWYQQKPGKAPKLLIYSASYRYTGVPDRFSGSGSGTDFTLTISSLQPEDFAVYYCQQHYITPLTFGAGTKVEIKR is ____.
Output: 1
